# study target: Dual specificity protein kinase CLK4 (Homo sapiens) (UniProt Q9HAZ1)
# Sequence (Q9HAZ1 whole entry, looked up): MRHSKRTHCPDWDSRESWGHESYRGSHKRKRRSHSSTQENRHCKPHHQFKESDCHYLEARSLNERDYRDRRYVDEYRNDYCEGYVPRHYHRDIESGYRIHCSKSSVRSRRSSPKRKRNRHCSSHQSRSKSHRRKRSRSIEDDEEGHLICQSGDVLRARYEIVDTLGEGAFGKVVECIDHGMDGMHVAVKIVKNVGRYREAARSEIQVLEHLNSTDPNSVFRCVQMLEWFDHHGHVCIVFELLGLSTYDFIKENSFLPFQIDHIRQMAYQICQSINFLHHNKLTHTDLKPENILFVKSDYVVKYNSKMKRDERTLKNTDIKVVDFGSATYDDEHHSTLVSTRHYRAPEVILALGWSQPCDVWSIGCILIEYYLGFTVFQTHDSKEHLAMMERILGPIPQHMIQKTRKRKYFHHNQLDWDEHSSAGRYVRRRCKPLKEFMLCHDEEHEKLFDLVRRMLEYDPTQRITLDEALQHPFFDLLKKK
# experiment description: qHTS Assay for Inhibitors of CDC-like Kinase 4 (ADP-Glo Assay) (AID 1771); further: nearly all actives have a fitted effect of over 70% in size
# particulars: recombinant CLK4, ADP-Glo luminescence; series mostly up to 80 µM
Records with an inconclusive call do not appear. Activity calls are given as the source filed them. The call rests on the fitted dose curve; in most records, active means well fitted inhibition curve with a large enough effect; inconclusive means small, poorly fitted or top-dose-only effect; inactive means flat fitted curve, though single readings scatter.
Valid outcomes are listed here; reply with one: active, inactive

Would you please look over these solved cases?
Query: Could you please tell me the result logged for O=c1c(-c2ccc(Cl)cc2)nc2cnc(N3CCNCC3)nc2n1-c1ccccc1 in this assay?
Result: inactive

Query: Lab log entry: COCCn1c(=O)c(-c2ccc(Cl)cc2)nc2cnc(N3CCOCC3)nc21 — outcome as called in the assay?
Result: inactive

Query: Which outcome was assigned to COc1cccc(-c2ccc3ncnc(NCCN4CCOCC4)c3c2)c1 in this test?
Result: active

Query: For O=c1c(-c2ccccc2)nc2cncnc2n1-c1ccccc1 , which call appears in the assay record?
Result: inactive

Query: Could you check what this test reported for N#CCCn1c(=O)c(-c2ccc(F)cc2)nc2cnc(N3CCNCC3)nc21 ?
Result: inactive

More entries:
Query: What is the recorded call for this compound in the test? CCNc1ncc2nc(-c3ccc(Cl)cc3)c(=O)n(C)c2n1
Result: inactive

Query: Hi team, can someone confirm the assay call for CC(=O)NCCNc1ncnc2ccc(-c3ccc4c(c3)OCO4)cc12 ?
Result: active
